- Assayed Target: 5-hydroxytryptamine receptor 5A (Homo sapiens)
- Experimental Protocol: activation of human 5-HT5A receptor – cell-based, luminescence, full-deck HTS, counter-screen for OPRM1-OPRD1 heterodimer agonist project, primary screen (AID 504692);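 further: 0% = cells with vehicle only and 100% = reference agonist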
- Measurement Context: HTR5A agonist assay, at 9.3 µM, stronger effect = higher value
Among all 340,000 compounds or so, about 2,000 (0.59%) were called active. What follows is part of a selection rich in actives, with near analogues and random picks from the rest.
Recorded Endpoint: activation (%)
Kindly answer with a numeric value in %, unit omitted.

Worked examples, 5 compounds total:
Compound: O=C(c1ccc(Oc2ccc(Cl)cc2)c([N+](=O)[O-])c1)N1CCCC1
Assayed Target: 5-hydroxytryptamine receptor 5A (Homo sapiens)
Recorded Endpoint: activation
Assay Result: 11
--
Compound: NS(=O)(=O)c1ccc(CNC(=S)NC(=O)c2ccco2)cc1
Assayed Target: 5-hydroxytryptamine receptor 5A (Homo sapiens)
Recorded Endpoint: activation
Assay Result: -0.69
--
Compound: O=C(Nc1ccc2oc(-c3ccccc3F)nc2c1)c1ccco1
Assayed Target: 5-hydroxytryptamine receptor 5A (Homo sapiens)
Recorded Endpoint: activation
Assay Result: 0.88
--
Compound: CC[C@]12c3[nH]c4cc(CCC(=O)N(C)C)ccc4c3CCN1C(=O)[C@@H](CC(=O)NCc1ccco1)C[C@@H]2C(=O)N1CCN(C(=O)c2ccco2)CC1
Assayed Target: 5-hydroxytryptamine receptor 5A (Homo sapiens)
Recorded Endpoint: activation
Assay Result: -2.65
--
Compound: C/C(=N\NC(=O)CSc1nc2ccccc2c(=O)n1-c1ccccc1C)c1cccs1
Assayed Target: 5-hydroxytryptamine receptor 5A (Homo sapiens)
Recorded Endpoint: activation
Assay Result: 9.42

Identify measured activation associated with O=S(=O)(NCc1cccnc1)c1ccc(Cl)nc1 -5.88

Give me measured activation, please, for this compound: O=S(=O)(NCCCCCCNS(=O)(=O)c1c(F)cccc1F)c1ccc2c(c1)OCCO2 2.32

Output activation of COc1c(O)cc2oc(-c3ccc(O)c(O)c3)cc(=O)c2c1O -1.01

Answer with the recorded activation for the compound listed here: CC1CCN(S(=O)(=O)c2ccc3c(c2)n(C)c(=O)n3C)CC1 4.68

Hello, please tell me recorded activation for this one: CCOc1ccc2[nH]c(=O)c(CN(CCCO)C(C)=O)cc2c1 4.2

Find the measured activation of Cc1cccc(/C=N/NC(=O)CNc2cccc3ccccc23)n1 and report it. 2.33

Using the record for Cc1ccn2c(c1)nc(=O)c1cc(S(=O)(=O)N3CCC(C)CC3)ccc12 , state its measured activation. 0.6

Answer with the recorded activation of O=C(CNCc1cccs1)Nc1cc(S(=O)(=O)N2CCCC2)ccc1Cl only. -2.05

Please look at this compound and report its activation: CC1CCN(S(=O)(=O)c2ccc3c(ccn3CC(=O)O)c2)CC1 9.91

Supply activation value. Item: Cc1cccc(OC(=O)c2sc3ncn(C)c(=O)c3c2C)c1 -4.42

Using the record for COc1cccc2sc(N(CCCN(C)C)C(=O)CCS(=O)(=O)c3ccccc3)nc12 , state its measured activation. 8.64

Fill in reported activation for this entry: Cc1ccc2nc(-c3ccc(NC(=O)c4cccnc4)cc3)oc2c1 1.12

Determine from records and report activation for COc1cc2ccccc2cc1C(=O)N(CCN(C)C)c1nc2c(F)cccc2s1 0.73

Check the records and state activation for Nc1ccc(C(=O)N2CCN(S(=O)(=O)c3ccc(Cl)cc3)CC2)cc1[N+](=O)[O-] -1.02

Look up and report measured activation for this entry: O=C(COc1ccc(Cl)cc1[N+](=O)[O-])N1CCCCC1 -1.55

Give the reported activation for this compound. Cc1ccc(C2CCN(C(=S)Nc3cccc(Cl)c3)C2)cc1 (stereo unspecified) 1.97
